target-system: cAMP-dependent protein kinase (PKA) (Homo sapiens, UniProt P22694+P17612+P22612)
assay-summary: Inhibitory activity against Protein kinase A (Histone)
Type: protein assay

{"sample-smiles": "COC(=O)C1CCN(CCc2cccc3c2[nH]c2c4ccc5ccn(C)c5c4c4c(c32)C(=O)NC4=O)CC1", "IC50": "> 20 µM"}
{"sample-smiles": "Cc1cc2ccn(C)c2c2c3c(c4c5ccc(C(F)(F)F)cc5[nH]c4c12)C(=O)NC3=O", "IC50": "> 20 µM"}
{"sample-smiles": "Cn1ccc2ccc3c4[nH]c5cc(C#N)ccc5c4c4c(c3c21)C(=O)NC4=O", "IC50": "> 20 µM"}
{"sample-smiles": "CCOc1ccc2c(c1)[nH]c1c3ccc4ccn(C)c4c3c3c(c21)C(=O)NC3=O", "IC50": "> 20 µM"}
{"sample-smiles": "CCn1ccc2ccc3c4[nH]c5ccccc5c4c4c(c3c21)C(=O)NC4=O", "IC50": "> 2 µM"}

====

This listing pairs molecules with measured inhibition.
target-system: Cyclin-dependent kinase 4 (Homo sapiens)
assay-summary: Inhibition of Rb phosphorylation at the CDK4 specific Ser780 residue (3 fold increase over control) after 24 hr incubation in HCT116 cells
Assay type: functional, cell-based
condition-description: HCT-116, concentration not given here

{"sample-smiles": "Cn1ccc2ccc3c4[nH]c5ccccc5c4c4c(c3c21)C(=O)NC4=O", "inhibition / %": 97}
{"sample-smiles": "COc1ccc2c3c4c(c5c(ccc6ccn(C)c65)c3n(CCCO)c2c1)C(=O)NC4=O", "inhibition / %": 95}
{"sample-smiles": "Cn1ccc2ccc3c4[nH]c5c(CCO)cccc5c4c4c(c3c21)C(=O)NC4=O", "inhibition / %": 92}
{"sample-smiles": "COc1ccc2c(c1)[nH]c1c3ccc4ccn(C)c4c3c3c(c21)C(=O)NC3=O", "inhibition / %": 97}

====

IC50 values by entry
Test system: HCT-116
assay-summary: In vitro antiproliferative activity against human carcinoma cell line HCT116 (colon)
Format: functional, cell-based

{"sample-smiles": "Cn1ccc2ccc3c4[nH]c5c(CCN6CCC(C(N)=O)CC6)cccc5c4c4c(c3c21)C(=O)NC4=O", "IC50, nM": 1000}
{"sample-smiles": "Cn1ccc2ccc3c4[nH]c5c(CCO)cccc5c4c4c(c3c21)C(=O)NC4=O", "IC50, nM": 1130}
{"sample-smiles": "COc1ccc2c(c1)[nH]c1c2c2c(c3c1c(C)cc1ccn(C)c13)C(=O)NC2=O", "IC50, nM": 1430}
{"sample-smiles": "CN1CCN(CCCc2cccc3c2[nH]c2c4ccc5ccn(C)c5c4c4c(c32)C(=O)NC4=O)CC1", "IC50, nM": 1380}
{"sample-smiles": "COc1ccc2c3c4c(c5c(ccc6ccn(C)c65)c3n(CCNCCO)c2c1)C(=O)NC4=O", "IC50, nM": 1470}

====

Attribute: IC50
target-system: CaM kinase II (Homo sapiens, UniProt Q13557+Q13555+Q13554+Q9UQM7)
assay-summary: Inhibitory activity against Calcium/calmodulin-dependent protein kinase type II
Type: protein assay

{"sample-smiles": "COc1ccc2c3c4c(c5c(ccc6ccn(C)c65)c3n(CCCN3CCOCC3)c2c1)C(=O)NC4=O", "target-system": "CaM kinase II (Homo sapiens, UniProt Q13557+Q13555+Q13554+Q9UQM7)", "IC50": "> 20 µM"}
{"sample-smiles": "COc1ccc2c3c4c(c5c(ccc6ccn(C)c65)c3n(CCCN3CCSCC3)c2c1)C(=O)NC4=O", "target-system": "CaM kinase II (Homo sapiens, UniProt Q13557+Q13555+Q13554+Q9UQM7)", "IC50": "> 20 µM"}
{"sample-smiles": "COc1ccc2c3c4c(c5c(ccc6ccn(C)c65)c3n(CCN3CCCCC3)c2c1)C(=O)NC4=O", "target-system": "CaM kinase II (Homo sapiens, UniProt Q13557+Q13555+Q13554+Q9UQM7)", "IC50": "> 20 µM"}
